System: MS2 coat protein
assay.name: apparent KD of MS2 coat protein; designed switch direction (-1 OFF switch, 1 ON switch): -1; higher = weaker reporter binding
stated.conditions: input ligand: none
endpoint.label: apparent KD of MS2 coat protein
Write down the value, and be sure its unit follows.

Worked examples follow.
[[record]]
sequence_input = "CAUUAUUAUCGAGGAUAUCCUAUUGUAAUUCUGGGAGAAGGCGGACUCAACAUGAGGAUCACCCAUGUAAGACGGGUACUAGAG [Ex NG1 #23] (Eterna round: R96, puzzle: Exclusion NG 1)"
recorded_measurement = "74.8 nM"

[[record]]
sequence_input = "AAAUCGGAGGAGGAUAUGGUACAGGAAAUGGUGCCAGAAGGUUUCACAUGAGGAUCACCCAUGUCAAAUAGCGA [EX6 #60] (Eterna round: R97, puzzle: Exclusion 6)"
recorded_measurement = "27.1 nM"

[[record]]
sequence_input = "UAAAUUAUUGUAAGGAUAUCAGUCCCGAAAGGGACUGAGAAGGUACAUGAGGAUCACCCAUGUGAAAUAAGAAU [Mod of Zala 15 - Jieux - Brourd's Mod of Exclusion 4] (Eterna round: R97, puzzle: Brourd's mod of Exclusion 4)"
recorded_measurement = "22.1 nM"


Here's the next entry for you.
Qu. Item ACAUGAGGAUCACCCAUGUACAGGGUUUAGUUUCAUCGUUUGAAGGAUAUACUCCGUUAGUUGUCGUAGAAGGUCACAUUUUGG [JR_ExcNG3_Sub006] (Eterna round: R96, puzzle: Exclusion NG 3) has what recorded apparent KD of MS2 coat protein?
Ans. 145 nM

----------
Test system: MS2 coat protein
assay.name: apparent KD of MS2 coat protein; designed switch direction (-1 OFF switch, 1 ON switch): -1; higher = weaker reporter binding
stated.conditions: input ligand: none
endpoint.label: apparent KD of MS2 coat protein (nM)
Numbers only, in nM.

For each of the sequences below, state apparent KD of MS2 coat protein.
1. AUUAACAUGUUGAUCAAAUACAUGAGGAUCACCCAUGUAUGCUUUUUGCUCGAUAAGAUCAACUAAUUAAUUAAUUA [StovNew/1-B] (Eterna round: R97, puzzle: Sensor, turn-off variant 1)
2. ACACAGCGAGGAUAUACAUGAGGAUCACCCAUGUGGUGGCAGUUACGGUAGGACUAGUGUAGAAGGUGCAGUGG [EX3 #29] (Eterna round: R97, puzzle: Exclusion 3)
3. UGAGUGCUGCGAGGAUAUACAUGAGGAUCACCCAUGUAAUCGUGUGAGGCUAUGCCUCACACGAAGUAGAAGGCGCAGUACUCU [Mat - Exclusion NG 2 - Mod of JL - D16] (Eterna round: R96, puzzle: Exclusion NG 2)

Ans.
[12.6, 800, 9.63]

----------
System: MS2 coat protein
assay.name: apparent KD of MS2 coat protein; designed switch direction (-1 OFF switch, 1 ON switch): -1; higher = weaker reporter binding
stated.conditions: input ligand: FMN 200 uM
What apparent KD of MS2 coat protein was measured for each of the following?
Numbers only, in nM.

Worked examples follow.
[[record]]
sequence_input = "GUAUAGUGAGGAUAUAUAUGCAGUAAACCUCAAAAGAUCGAACUUGAGGAUCACCCAAGUAGAAGGCGCGAGAU [JR_Ex2_Sub052] (Eterna round: R97, puzzle: Exclusion 2)"
recorded_measurement = 24.5

[[record]]
sequence_input = "AGCCCUGCAGGAUAUGCCCGGGAUAACAUGAGGAUCACCCAUGUGACCGAUUGUUAAUCUGCAGAAGGGCAUGGGA [JL-EX5-4.18 ViennaUCT mod] (Eterna round: R97, puzzle: Exclusion 5)"
recorded_measurement = 313

[[record]]
sequence_input = "UUUUGACAAGCGAGAUCCUACAUGAGGAUCACCCAUGUUGACCAUGGUUUCCAUGGUCUUUUUGCUCGUCUUGUGUG [jl TITIN mod 4] (Eterna round: R97, puzzle: Sensor, turn-off variant 1)"
recorded_measurement = 21.5

[[record]]
sequence_input = "CACCUCGUAGCAGGAUAUUAGAGCUUCCGCAAAUGAGAAGGGCUACGAAACACUUGAGGAUCACCCAAGUACCGUGGUCCUCUA [Mutated MS2 EX1.11] (Eterna round: R96, puzzle: Exclusion NG 1)"
recorded_measurement = 19.7


Here's the next entry for you.
Qu. What is its apparent KD of MS2 coat protein for MS2 coat protein? Entry: ACUUAUAGAGGAUAUACAGAAUAUUACAUGAGGAUCACCCAUGUUCUUCAAUGUAUAUAUGUAGAAGGCUAAGGAU [Mat - Exclusion 5 - JL Mod - D6] (Eterna round: R97, puzzle: Exclusion 5)
Ans. 299
